target: SARS-CoV-2 NSP3 macrodomain (Mac1), P43 crystal form (Severe acute respiratory syndrome coronavirus 2, UniProt P0DTD1); format: binding; settings: ligand conformations modeled in Mac1 crystal structure
Exercise: for every item that follows, state its recorded Total number of conformations.
Just the number, please.

Name the recorded Total number of conformations of the compound listed here: OCC(Nc1ncnc2[nH]ccc12)c1ccccc1 (centres unmarked)
1

Name the recorded Total number of conformations of the compound listed here: Nc1nnc(SCCn2c(=O)oc3ccccc32)s1
1

Name the recorded Total number of conformations of the compound listed here: CC1CCN(c2ncnc3[nH]ccc23)C1CO (centres unmarked)
1

Name the recorded Total number of conformations of the compound listed here: OC1(CNc2ncnc3[nH]ccc23)CCCC(C(F)(F)F)C1 (centres unmarked)
1

Name the recorded Total number of conformations of the compound listed here: OC[C@@H]1C[C@H](O)CN1c1ncnc2[nH]ccc12
1

Name the recorded Total number of conformations of the compound listed here: Cc1ccccc1CC(CO)Nc1ncnc2[nH]ccc12 (centres unmarked)
1

Name the recorded Total number of conformations of the compound listed here: c1ccc(-n2nnnc2CSc2nnc(NC3CC3)s2)cc1
1

Name the recorded Total number of conformations of the compound listed here: Cc1sc2ncnc(Sc3ccccc3C(=O)O)c2c1C
2

Name the recorded Total number of conformations of the compound listed here: OCC(CC1CC1)Nc1ncnc2[nH]ccc12 (centres unmarked)
1

Name the recorded Total number of conformations of the compound listed here: OCC1CC=CCN1c1ncnc2[nH]ccc12 (centres unmarked)
1

Name the recorded Total number of conformations of the compound listed here: CC(C)(O)C1N(c2ncnc3[nH]ccc23)CCC1(C)C (centres unmarked)
2

###

target: SARS-CoV-2 NSP3 macrodomain (Mac1), P43 crystal form (Severe acute respiratory syndrome coronavirus 2, UniProt P0DTD1); format: binding; details: occupancy estimate from PanDDA 1-BDC
Exercise: for every item that follows, state its recorded 2*(1-BDC) (%).
Note to self: number, then unit, no commentary.

Name the recorded 2*(1-BDC) (%) of the compound listed here: Cc1ccc(CC(CO)Nc2ncnc3[nH]ccc23)cc1C (stereo not drawn)
30%

Name the recorded 2*(1-BDC) (%) of the compound listed here: O=C(Nc1ccsc1C(=O)O)c1ccc2c(c1)OCO2
14%

Name the recorded 2*(1-BDC) (%) of the compound listed here: OCC(Cc1ccccn1)Nc1ncnc2[nH]ccc12 (stereo not drawn)
26%

Name the recorded 2*(1-BDC) (%) of the compound listed here: OCC(CC(F)(F)F)Nc1ncnc2[nH]ccc12 (stereo not drawn)
46%

Name the recorded 2*(1-BDC) (%) of the compound listed here: OCC1CC2(CCC2)CN1c1ncnc2[nH]ccc12 (stereo not drawn)
48%

Name the recorded 2*(1-BDC) (%) of the compound listed here: OCC(Cc1cccs1)Nc1ncnc2[nH]ccc12 (stereo not drawn)
42%

Name the recorded 2*(1-BDC) (%) of the compound listed here: Cn1cc(CC(CO)Nc2ncnc3[nH]ccc23)cn1 (stereo not drawn)
30%

Name the recorded 2*(1-BDC) (%) of the compound listed here: O[C@H]1CC[C@@H]2CCN(c3ncnc4[nH]ccc34)[C@@H]21
32%

Name the recorded 2*(1-BDC) (%) of the compound listed here: CN(C)CC(CO)Nc1ncnc2[nH]ccc12 (stereo not drawn)
34%

Name the recorded 2*(1-BDC) (%) of the compound listed here: O=C(O)C(F)(F)F.OCC12CC(CN1c1ncnc3[nH]ccc13)C2
44%

Name the recorded 2*(1-BDC) (%) of the compound listed here: O=C(O)C(F)(F)F.OC[C@@H]1CC2(CC2)CN1c1ncnc2[nH]ccc12
52%

Name the recorded 2*(1-BDC) (%) of the compound listed here: CC(C)(C)CC(CO)Nc1ncnc2[nH]ccc12 (stereo not drawn)
26%
